- method summary: Thermogravimetric analysis of the quantity of additive encapsulated in microporous or mesoporous material
- applied conditions: encapsulated in silica by impregnation (Example 1)
measure: % Encapsulated (g additive/g solid total) × 100 (%)

compound	val
CC(C)=CCCC(C)CC(=O)O (stereo not shown)	56.9
CC(C)=CCC/C(C)=C/C(=O)O	55.7
CCCCN(CCC(=O)OCC)C(C)=O [IR3535, ethyl 3-[acetyl(butyl)amino]propanoate]	58.7
CC(C)=CCC/C(C)=C/CO	55.0

----------
- method summary: Thermogravimetric analysis of the quantity of additive encapsulated in microporous or mesoporous material
- applied conditions: MIL-53 MOF, two steps, 60° C., encapsulation time 7 days
measure: % Encapsulated (g additive/g dry solid) × 100 (%)

Recorded % Encapsulated (g additive/g dry solid) × 100, per entry:
compound	val
CC(C)=CCC/C(C)=C/C(=O)O [Geranic acid, geranic acid]	44.0
CC(C)=CCCC(C)CC(=O)O (stereo not shown) [Citronellic acid, citronellic acid]	25.1

(I) CCCCN(CCC(=O)OCC)C(C)=O [IR3535, ethyl 3-[acetyl(butyl)amino]propanoate]
(II) CC(C)=CCC/C(C)=C/CO [Geraniol, geraniol]
Could you kindly indicate whether I or II has the higher % Encapsulated (g additive/g dry solid) × 100 value? Your choice should be expressed through its label.
II
(II: 36.7%, I: 25.2%)
